Every entry's value here was drawn from the Immune Epitope Database (IEDB).

Molecular target: HLA-A*02:03
Assay: IEDB peptide-MHC binding, purified MHC/competitive/radioactivity; bounds were set here for any values at or beyond the usual limits of such assays
Details: source organism: Vaccinia virus WR
pIC50: −log10 of the molar value.
Quick rule: pIC50 of at least 6 means y, below that means n.

RESIDUES | LABEL CLASS
NILMDSIFV | y
FTILEYLYI | y
VAMLLTHGA | y
TVPTNDHIPV | n
ILSLETVKM | y
LTGTFVTAFI | y
TIFDIVSKCI | y
LIVILFIMFM | y
STVDVRNIV | n
QQLCTMERT | n
ELKDLLNVT | y
AIFNNRNLAA | y
YIEDELRRA | y
ALYSPPLISI | y
DLLFNEKLKV | y
SLCPTKKLV | n

====

Target: HLA-A*02:03
Test: IEDB peptide-MHC binding, purified MHC/competitive/radioactivity; bounds were set here for any values at or beyond the usual limits of such assays
Details: source organism: Hepacivirus hominis
Listing: IC50 of selected sequences

RESIDUES | IC50 / µM
MLVNGDDLVV | 0.104
ALLSCLTTPA | 0.211
WMMLLIAQA | 0.047
RLLLLGLLLL | 4.25
ALYGVWPLLL | 0.0075
HLFTSMFSL | 0.105
LLLLSVGVGI | 0.605
VLQAGITRV | 0.012
RLVPGATYAL | 0.834
GLLLLCVGV | 0.285
GLIHACMLV | 0.0019
LLYFILFFVA | 4.7
LIVMLLFAGV | 0.358
FISGIQYLA | 0.832
FLLALLSCLT | 0.154
CLWWTCYMLV | 0.891
VLIVMLLFA | 0.435
TLLGCWSFV | 0.041

====

Measured pIC50, listed per entry for reference.
Molecular target: HLA-A*02:01
Assay: IEDB peptide-MHC binding, cellular MHC/competitive/fluorescence; bounds were set here for any values at or beyond the usual limits of such assays
Settings: source organism: Vaccinia virus WR
pIC50: −log10 of the molar value.

RESIDUES | ASSAY SYSTEM | QUALIFIER | pIC50
FTELENKKV | HLA-A*02:01 | ≤ | 4.15
WIKTISKRM | HLA-A*02:01 | = | 4.63
ITVTVTFNPV | HLA-A*02:01 | = | 5.19
KAVIEYDDI | HLA-A*02:01 | = | 4.42
TQFNFNGHT | HLA-A*02:01 | ≤ | 4.15
EIVSHLRAST | HLA-A*02:01 | ≤ | 4.15
ITLILSNKL | HLA-A*02:01 | = | 5.17
EILSNTTKTL | HLA-A*02:01 | = | 4.99
VISLLSMIT | HLA-A*02:01 | = | 5.30
NLEELTTVFI | HLA-A*02:01 | = | 5.13
SIDRLSLNRT | HLA-A*02:01 | = | 5.29

====

# key: entry, value: IC50
Target: HLA-A*02:02
Test: IEDB peptide-MHC binding, cellular MHC/competitive/fluorescence; bounds were set here for any values at or beyond the usual limits of such assays
Conditions: source organism: Vaccinia virus WR
ATTRIBUTE MEASURED: IC50 (µM)

RESIDUES | UNIT SPEC | QUALIFIER | REPORTED MEASUREMENT
IVCSKTVKNV | µM | = | 10.8
PTNDIPSLFI | µM | = | 11
IVAAVIIMA | µM | = | 10.4
HAKYMVTDKT | µM | = | 9.03
EILRNYLRL | µM | = | 14
CVDIFTEGKI | µM | ≥ | 70
LIISTDQDT | µM | ≥ | 70
ETVKMGAFM | µM | = | 15
QQNNSFIIST | µM | = | 7
PTIEDDKIVT | µM | = | 13.8
EMQLKIDKLT | µM | = | 9.66
DTEFINKFL | µM | = | 7.42
EIRGVLPEET | µM | = | 9.6
TQFNFNGHT | µM | = | 43.4
GLIVILFIM | µM | = | 13.4
RISSSLDQT | µM | = | 6.79
NILGGVLHT | µM | ≥ | 70
RTWKVLSIMA | µM | = | 24
SAGFTATICL | µM | = | 6.9
RLLKNMKQCT | µM | = | 46.8
NTLISSDGA | µM | = | 7.41
NVTGFMEEEI | µM | = | 10.3
DLDKVYEIL | µM | = | 19.6
ETQSGALEVL | µM | = | 5.31
NAILHNIYRL | µM | = | 5.61
PVETLFGSYI | µM | = | 13.7
DLAIKQYGDI | µM | = | 17.9
RQVSVKLLI | µM | = | 17.9
TAIRAGYSIV | µM | = | 6.82
SVNASKTINA | µM | = | 17.3
YVLFVKKML | µM | = | 31.1
SLETVKMGA | µM | = | 11.2
PLTLLIKTL | µM | = | 5.27
GVLIAGIIL | µM | = | 5.24
FTHTTAFFNT | µM | = | 17.2
VILKDPRIA | µM | = | 10.6
FVVNGHTCM | µM | = | 6.64
LLDEPLSPDT | µM | = | 8.51
KTKISVEKI | µM | = | 7.6
LIQYRQQLEL | µM | = | 32.8
IIRVTTELNI | µM | = | 9.96
TISWMMKLGI | µM | = | 7.84
TQLFKYVPSA | µM | ≥ | 70
NIKPVIVPDI | µM | = | 10.3
